test system: Entamoeba histolytica; assay: Antiprotozoal activity against trophozoite stage of Entamoeba histolytica HM-1:IMSS assessed as growth inhibition after 48 hrs by haemocytometric analysis; type: functional, organism-based
Binary label based on IC50 with cut-off 60 nM: below gives YES, not below gives NO.

molecule	answer.label
COC(=O)c1ccc2c(c1)nc(SCCn1ccnc1)n2C	YES

In: Is 60 nM strictly greater than the molecule's reported IC50? molecule: `Clc1ccc2[nH]c(SCCn3ccnc3)nc2c1`
Out: NO

In: # repeat for `Cn1c(SCCn2ccnc2)nc2cc(Cl)ccc21`
Out: NO

In: # repeat for `Cn1c(SCCn2ccnc2)nc2cc(Cl)c(Cl)cc21`
Out: NO

In: # repeat for `COC(=O)c1cc2c(cc1Cl)nc(SCCn1ccnc1)n2C`
Out: YES

In: # repeat for `COC(=O)c1ccc2nc(SCCn3ccnc3)n(C)c2c1`
Out: YES

In: # repeat for `Cn1c(SCCn2ccnc2)nc2ccccc21`
Out: NO

In: # repeat for `CCOc1ccc2[nH]c(SCCn3ccnc3)nc2c1`
Out: YES

In: # repeat for `CCOc1ccc2nc(SCCn3ccnc3)n(C)c2c1`
Out: YES

In: # repeat for Cc1ncc([N+](=O)[O-])n1CCO [METRONIDAZOLE]
Out: NO

In: # repeat for `CCOc1cc2c(cc1Cl)nc(SCCn1ccnc1)n2C`
Out: YES

Where do the numbers come from? From ChEMBL document CHEMBL2401655.
